The reported numbers originate from patent US20120245137A1.

- Target Under Test: UniProt:O43497
- Sequence (O43497 whole entry): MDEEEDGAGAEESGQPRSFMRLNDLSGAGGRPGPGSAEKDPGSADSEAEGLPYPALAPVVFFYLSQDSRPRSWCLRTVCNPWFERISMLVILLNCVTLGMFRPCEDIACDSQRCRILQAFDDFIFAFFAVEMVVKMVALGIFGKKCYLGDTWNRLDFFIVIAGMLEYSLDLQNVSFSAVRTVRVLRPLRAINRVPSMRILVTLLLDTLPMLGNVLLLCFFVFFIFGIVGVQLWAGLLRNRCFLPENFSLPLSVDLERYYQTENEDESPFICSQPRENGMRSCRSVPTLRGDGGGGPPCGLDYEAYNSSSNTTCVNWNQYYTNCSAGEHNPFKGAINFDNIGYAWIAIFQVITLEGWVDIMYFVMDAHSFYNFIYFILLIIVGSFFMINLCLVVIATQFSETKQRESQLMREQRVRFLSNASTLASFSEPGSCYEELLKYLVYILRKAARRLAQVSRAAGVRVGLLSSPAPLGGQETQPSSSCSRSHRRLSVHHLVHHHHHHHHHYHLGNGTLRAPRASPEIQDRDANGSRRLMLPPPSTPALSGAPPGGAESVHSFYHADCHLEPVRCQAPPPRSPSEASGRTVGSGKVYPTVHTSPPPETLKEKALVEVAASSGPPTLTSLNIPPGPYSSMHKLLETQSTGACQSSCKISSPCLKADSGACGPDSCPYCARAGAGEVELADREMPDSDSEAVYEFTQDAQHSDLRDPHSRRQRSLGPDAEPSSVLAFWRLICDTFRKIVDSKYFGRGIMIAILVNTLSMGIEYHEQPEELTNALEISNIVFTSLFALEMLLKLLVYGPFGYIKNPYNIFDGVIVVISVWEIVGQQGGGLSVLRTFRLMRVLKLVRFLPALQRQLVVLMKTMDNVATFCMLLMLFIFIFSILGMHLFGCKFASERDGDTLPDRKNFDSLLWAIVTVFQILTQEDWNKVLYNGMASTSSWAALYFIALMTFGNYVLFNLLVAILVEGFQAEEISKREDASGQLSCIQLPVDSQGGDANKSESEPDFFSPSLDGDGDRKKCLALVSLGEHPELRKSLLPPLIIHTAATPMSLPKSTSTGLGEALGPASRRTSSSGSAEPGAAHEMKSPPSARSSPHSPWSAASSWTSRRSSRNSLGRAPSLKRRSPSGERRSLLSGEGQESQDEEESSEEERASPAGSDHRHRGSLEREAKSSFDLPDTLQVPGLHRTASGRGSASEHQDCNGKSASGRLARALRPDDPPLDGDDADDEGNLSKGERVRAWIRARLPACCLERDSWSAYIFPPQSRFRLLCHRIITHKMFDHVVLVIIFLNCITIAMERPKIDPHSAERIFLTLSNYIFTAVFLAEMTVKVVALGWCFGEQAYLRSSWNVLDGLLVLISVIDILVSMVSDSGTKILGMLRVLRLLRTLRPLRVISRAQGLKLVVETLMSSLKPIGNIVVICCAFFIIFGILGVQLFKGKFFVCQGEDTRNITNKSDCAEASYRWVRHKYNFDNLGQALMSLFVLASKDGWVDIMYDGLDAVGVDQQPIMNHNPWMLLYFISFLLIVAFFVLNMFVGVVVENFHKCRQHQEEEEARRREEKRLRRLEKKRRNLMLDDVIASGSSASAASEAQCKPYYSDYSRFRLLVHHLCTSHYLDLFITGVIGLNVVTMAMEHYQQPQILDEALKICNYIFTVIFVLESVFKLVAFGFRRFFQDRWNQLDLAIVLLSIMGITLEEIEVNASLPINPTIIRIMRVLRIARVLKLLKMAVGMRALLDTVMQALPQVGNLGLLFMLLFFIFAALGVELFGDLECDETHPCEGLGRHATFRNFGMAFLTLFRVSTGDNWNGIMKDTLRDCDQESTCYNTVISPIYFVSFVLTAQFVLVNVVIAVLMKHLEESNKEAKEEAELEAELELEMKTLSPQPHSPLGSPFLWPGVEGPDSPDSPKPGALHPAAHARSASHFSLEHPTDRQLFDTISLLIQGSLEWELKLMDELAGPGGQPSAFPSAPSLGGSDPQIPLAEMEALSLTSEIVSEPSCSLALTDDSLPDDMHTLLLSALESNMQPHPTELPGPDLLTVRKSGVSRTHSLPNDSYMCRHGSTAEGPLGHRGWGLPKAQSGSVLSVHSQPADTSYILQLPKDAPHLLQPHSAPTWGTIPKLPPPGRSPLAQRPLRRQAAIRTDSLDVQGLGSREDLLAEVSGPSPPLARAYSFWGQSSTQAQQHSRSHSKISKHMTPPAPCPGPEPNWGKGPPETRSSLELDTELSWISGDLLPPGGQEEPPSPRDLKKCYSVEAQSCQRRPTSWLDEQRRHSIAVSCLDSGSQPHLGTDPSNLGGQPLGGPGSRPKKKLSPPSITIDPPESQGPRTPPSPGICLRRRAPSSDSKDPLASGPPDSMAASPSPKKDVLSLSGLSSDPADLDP
- Assay Info: T-type calcium channel block, whole cell patch clamp, α1G
- Protocol Conditions: HEK cells stably expressing human α1G; mainly non-inactivated protocol; values above 10,000 nM represented as 10000
pIC50: −log10 of the molar value.
Quantity: pIC50

(P) O=C(N[C@H]1CC[C@@](F)(S(=O)(=O)c2cccc(C(F)(F)F)c2)CC1)[C@H]1C[C@@H]1c1ccccc1
(Q) O=C(NC[C@H]1C[C@H](S(=O)(=O)c2cccc(C(F)(F)F)c2)C1)c1cc(C(F)(F)F)ccn1
(R) CC(C)(CNS(=O)(=O)c1ccc2c(c1)NC(=O)CO2)S(=O)(=O)c1cccc(C(F)(F)F)c1
### Prompt List the items above again, this time ordered by increasing pIC50. Response format: the labels, sorted as the prompt asks.
### Response Q, P, R

(P) CC(C)(CNS(=O)(=O)c1cccc2nsnc12)S(=O)(=O)c1cccc(C(F)(F)F)c1
(Q) O=C(N[C@H]1CC[C@@H](S(=O)(=O)c2cccc(C(F)(F)F)c2)CC1)c1ccc(Cl)c(C(F)(F)F)c1
(R) COc1cc(F)cc(C(=O)NC[C@H]2CC[C@@H](S(=O)(=O)c3cccc(C(F)(F)F)c3)CC2)c1
(S) COc1c(C)cc(C(=O)NCC(C)(C)S(=O)(=O)c2cccc(C(F)(F)F)c2)cc1C
### Prompt Rank descending by pIC50. Response format: the labels, sorted as the prompt asks.
### Response P, S, R, Q
(P: 6.34, S: 6.14, R: 5.89, Q: 5.44)

(a) Cn1nc(C(F)(F)F)cc1C(=O)N[C@H]1CC[C@@](F)(S(=O)(=O)c2cc(F)cc(C(F)(F)F)c2)CC1
(b) CC(C)(CNC(=O)c1ccc(F)c(C(F)(F)F)c1)S(=O)(=O)c1cccc(C(F)(F)F)c1
### Prompt Please compare: a and b . Report which one has the smaller pIC50 value. Write down the label of the entry you select.
### Response a
(a: 5.55, b: 6.15)

(a) O=C(CN[C@H]1CC[C@H](S(=O)(=O)c2cccc(C(F)(F)F)c2)CC1)NC1CCCCC1
(b) Cn1nc(C(F)(F)F)cc1C(=O)N[C@H]1CC[C@@](F)(S(=O)(=O)c2cccc(OC(F)(F)F)c2)CC1
### Prompt API: POST /compare with a and b ; response names the item with higher pIC50. Write down the label of the entry you select.
### Response a
(a: 5.99, b: 5.70)

* * *

- Target Under Test: T-type calcium channel (Homo sapiens, UniProt O95180)
- Sequence (O95180 whole entry): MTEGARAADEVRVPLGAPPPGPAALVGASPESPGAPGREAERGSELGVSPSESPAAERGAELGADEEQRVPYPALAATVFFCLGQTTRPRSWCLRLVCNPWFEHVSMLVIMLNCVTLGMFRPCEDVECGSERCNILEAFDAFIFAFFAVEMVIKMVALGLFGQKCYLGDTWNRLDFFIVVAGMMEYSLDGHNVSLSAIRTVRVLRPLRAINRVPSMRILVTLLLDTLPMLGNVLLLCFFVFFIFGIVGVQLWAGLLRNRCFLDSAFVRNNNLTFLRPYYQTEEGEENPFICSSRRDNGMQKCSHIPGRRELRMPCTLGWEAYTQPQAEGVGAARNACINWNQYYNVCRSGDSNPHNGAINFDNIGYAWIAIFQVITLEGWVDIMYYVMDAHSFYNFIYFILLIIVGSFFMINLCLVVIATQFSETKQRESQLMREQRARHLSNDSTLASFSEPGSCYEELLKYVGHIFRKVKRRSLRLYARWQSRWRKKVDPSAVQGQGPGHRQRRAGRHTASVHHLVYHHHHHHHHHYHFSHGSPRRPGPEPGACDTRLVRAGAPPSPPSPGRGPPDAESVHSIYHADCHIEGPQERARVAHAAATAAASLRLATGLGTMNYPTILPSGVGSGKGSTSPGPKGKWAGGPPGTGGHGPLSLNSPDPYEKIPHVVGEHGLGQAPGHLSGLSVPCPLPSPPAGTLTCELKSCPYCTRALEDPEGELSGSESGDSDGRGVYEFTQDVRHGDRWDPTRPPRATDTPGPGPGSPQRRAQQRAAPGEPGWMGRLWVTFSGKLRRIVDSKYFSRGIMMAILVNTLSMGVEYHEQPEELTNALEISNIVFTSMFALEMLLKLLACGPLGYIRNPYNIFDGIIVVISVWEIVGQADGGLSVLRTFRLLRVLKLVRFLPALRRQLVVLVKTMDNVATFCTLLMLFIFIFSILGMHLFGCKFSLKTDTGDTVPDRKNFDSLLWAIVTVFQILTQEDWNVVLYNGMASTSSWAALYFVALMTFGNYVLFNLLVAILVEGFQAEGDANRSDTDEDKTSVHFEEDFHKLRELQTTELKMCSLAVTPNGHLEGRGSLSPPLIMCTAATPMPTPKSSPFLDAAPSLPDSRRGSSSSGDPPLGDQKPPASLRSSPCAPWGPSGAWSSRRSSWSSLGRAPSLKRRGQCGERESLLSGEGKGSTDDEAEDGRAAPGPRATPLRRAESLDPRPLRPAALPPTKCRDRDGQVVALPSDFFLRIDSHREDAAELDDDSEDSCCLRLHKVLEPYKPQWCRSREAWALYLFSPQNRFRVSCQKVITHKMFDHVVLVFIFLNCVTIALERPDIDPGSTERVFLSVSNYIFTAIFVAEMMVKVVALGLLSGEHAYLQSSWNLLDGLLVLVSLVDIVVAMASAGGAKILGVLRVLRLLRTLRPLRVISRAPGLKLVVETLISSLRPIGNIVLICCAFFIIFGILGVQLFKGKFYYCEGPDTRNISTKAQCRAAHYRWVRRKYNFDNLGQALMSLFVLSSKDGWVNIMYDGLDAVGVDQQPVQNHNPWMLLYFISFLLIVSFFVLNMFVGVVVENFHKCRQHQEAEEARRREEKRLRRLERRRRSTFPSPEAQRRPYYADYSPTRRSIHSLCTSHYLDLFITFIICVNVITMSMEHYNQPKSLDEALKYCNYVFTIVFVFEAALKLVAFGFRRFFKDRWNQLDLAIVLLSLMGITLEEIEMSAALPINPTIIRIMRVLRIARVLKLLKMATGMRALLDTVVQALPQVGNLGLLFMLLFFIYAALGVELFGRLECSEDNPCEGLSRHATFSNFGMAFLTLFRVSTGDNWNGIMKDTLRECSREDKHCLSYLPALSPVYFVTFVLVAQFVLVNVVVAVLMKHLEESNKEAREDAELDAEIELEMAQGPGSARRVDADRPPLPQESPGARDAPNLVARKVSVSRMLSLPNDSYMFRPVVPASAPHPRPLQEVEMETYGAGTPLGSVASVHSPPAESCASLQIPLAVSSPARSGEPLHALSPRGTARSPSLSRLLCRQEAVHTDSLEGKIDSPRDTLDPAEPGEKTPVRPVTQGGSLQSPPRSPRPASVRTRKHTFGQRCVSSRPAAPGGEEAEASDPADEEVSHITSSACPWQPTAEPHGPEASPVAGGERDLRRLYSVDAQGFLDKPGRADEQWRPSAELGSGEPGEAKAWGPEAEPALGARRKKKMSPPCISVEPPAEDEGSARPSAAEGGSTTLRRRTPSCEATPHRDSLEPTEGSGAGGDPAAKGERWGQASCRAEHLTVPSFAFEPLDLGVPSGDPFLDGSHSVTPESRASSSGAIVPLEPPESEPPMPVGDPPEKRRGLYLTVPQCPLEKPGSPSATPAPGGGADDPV
- Assay Info: T-type channel blocking, FLIPR data (Table 6)
- Format: cell-based
- Protocol Conditions: CAv3.2, inactivated state, read-out: CAv3.2 IC50 Inact.
pIC50: −log10 of the molar value.
Quantity: pIC50

The cases that follow already have their pIC50 on record.
>  <Compound>
CC(C)([C@H]1C[C@@H](NS(=O)(=O)c2ccc(Cl)c(F)c2)C1)S(=O)(=O)c1cc(F)cc(C(F)(F)F)c1

>  <Value Observed>
5.29

$$$$
>  <Compound>
CC(C)(C1CC(CNC(=O)c2ccc(F)c(Cl)c2)C1)S(=O)(=O)c1cccc(C(F)(F)F)c1 (stereo not drawn)

>  <Value Observed>
6.46

$$$$
>  <Compound>
CC(C)([C@H]1C[C@H](CNc2cc(C(F)(F)F)n[nH]2)C1)S(=O)(=O)c1cccc(C(F)(F)F)c1

>  <Value Observed>
5.73

$$$$
>  <Compound>
CC(C)S(=O)(=O)c1cc(C(F)(F)F)cnc1C(=O)N[C@H]1C[C@@H](CC(C)(C)S(=O)(=O)c2cccc(C(F)(F)F)c2)C1

>  <Value Observed>
5.17

$$$$
>  <Compound>
CC(C)(C[C@H]1C[C@H](NC(=O)[C@H]2CCCC[C@@H]2N)C1)S(=O)(=O)c1cccc(C(F)(F)F)c1

>  <Value Observed>
5.00

$$$$

(1) CC(C)([C@H]1C[C@@H](NC(=O)c2ccc(F)c(Cl)c2)C1)S(=O)(=O)c1cccc(OC(F)(F)F)c1
(2) NC1(CC(=O)NC[C@H]2C[C@H](S(=O)(=O)c3cccc(Cl)c3)C2)CCCCC1
### Prompt Please compare: 1 and 2 . Report which one has the smaller pIC50 value. Write down the label of the entry you select.
### Response 2

(I) CC(C)(C[C@H]1C[C@H](NC(=O)c2ccc(C(F)(F)F)cc2)C1)S(=O)(=O)c1cccc(C(F)(F)F)c1
(II) CC(C)S(=O)(=O)c1cc(C(F)(F)F)cnc1C(=O)N[C@H]1C[C@H](C(C)(C)S(=O)(=O)c2cc(F)cc(C(F)(F)F)c2)C1
(III) O=C(NC[C@H]1C[C@H](S(=O)(=O)c2cc(F)cc(C(F)(F)F)c2)C1)c1ccc(Cl)cn1
(IV) CC(C)([C@H]1C[C@H](NC(=O)c2cc(C(F)(F)F)n[nH]2)C1)S(=O)(=O)c1cccc(OC(F)(F)F)c1
### Prompt Rank descending by pIC50. Response format: the labels, sorted as the prompt asks.
### Response I, IV, III, II
(I: 6.19, IV: 5.82, III: 5.42, II: 4.98)

* * *

- Target Under Test: T-type calcium channel (Homo sapiens)
- Assay Info: T-type channel blocking, FLIPR data (Table 6)
- Format: cell-based
- Protocol Conditions: CAv3.2, ratio closed/inact.
Quantity: CAv3.2 IC50 Ratio closed/inact.

The cases that follow already have their CAv3.2 IC50 Ratio closed/inact. on record.
>  <Chemical Smiles>
CC(C)([C@H]1C[C@@H](C(=O)Nc2ccc(C(F)(F)F)cc2)C1)S(=O)(=O)c1cccc(C(F)(F)F)c1

>  <Target Under Test>
T-type calcium channel (Homo sapiens)

>  <CAv3.2 IC50 Ratio closed/inact.>
2.9

$$$$
>  <Chemical Smiles>
CC(C)([C@H]1C[C@H](C(=O)Nc2cc(C(F)(F)F)n[nH]2)C1)S(=O)(=O)c1cccc(C(F)(F)F)c1

>  <Target Under Test>
T-type calcium channel (Homo sapiens)

>  <CAv3.2 IC50 Ratio closed/inact.>
5.4

$$$$
>  <Chemical Smiles>
CC(C)([C@H]1C[C@H](CNc2cc(C(F)(F)F)n[nH]2)C1)S(=O)(=O)c1cccc(C(F)(F)F)c1

>  <Target Under Test>
T-type calcium channel (Homo sapiens)

>  <CAv3.2 IC50 Ratio closed/inact.>
3.1

$$$$
>  <Chemical Smiles>
CC(C)([C@H]1C[C@@H](CNc2ccc(F)c(Cl)c2)C1)S(=O)(=O)c1cccc(C(F)(F)F)c1

>  <Target Under Test>
T-type calcium channel (Homo sapiens)

>  <CAv3.2 IC50 Ratio closed/inact.>
6.1

$$$$
>  <Chemical Smiles>
CC(C)(C[C@H]1C[C@@H](NC(=O)[C@@H]2CCCC[C@@H]2N)C1)S(=O)(=O)c1cccc(C(F)(F)F)c1

>  <Target Under Test>
T-type calcium channel (Homo sapiens)

>  <CAv3.2 IC50 Ratio closed/inact.>
1

$$$$

(a) NC1(CC(=O)N2CC(CS(=O)(=O)c3cc(F)cc(C(F)(F)F)c3)C2)CCCCC1
(b) CC(C)([C@H]1C[C@H](CNc2ccc(F)c(Cl)c2)C1)S(=O)(=O)c1cccc(C(F)(F)F)c1
(c) CC(C)([C@H]1C[C@@H](C(=O)Nc2ccc(C(F)(F)F)cn2)C1)S(=O)(=O)c1cccc(C(F)(F)F)c1
### Prompt Rank descending by CAv3.2 IC50 Ratio closed/inact.. Response format: the labels, sorted as the prompt asks.
### Response b, c, a

(A) CC(C)S(=O)(=O)c1cc(C(F)(F)F)cnc1C(=O)NC[C@H]1C[C@H](S(=O)(=O)c2cccc(Cl)c2)C1
(B) CC(C)([C@H]1C[C@H](CNc2ccc(Cl)c(F)c2)C1)S(=O)(=O)c1cccc(C(F)(F)F)c1
(C) CC(C)([C@H]1C[C@H](C(=O)Nc2ccc(C(F)(F)F)cc2)C1)S(=O)(=O)c1cccc(C(F)(F)F)c1
(D) Cc1nc(C(F)(F)F)ccc1NC(=O)[C@H]1C[C@H](C(C)(C)S(=O)(=O)c2cccc(C(F)(F)F)c2)C1
### Prompt Please put the entries in order of rising CAv3.2 IC50 Ratio closed/inact.. Response format: the labels, sorted as the prompt asks.
### Response A, D, C, B

(P) O=C(NC[C@H]1C[C@H](S(=O)(=O)c2cccc(Cl)c2)C1)c1ccc(OCC(F)(F)F)nc1
(Q) CC(C)(C[C@H]1C[C@@H](NC(=O)[C@@H]2CCCC[C@H]2N)C1)S(=O)(=O)c1cccc(C(F)(F)F)c1
### Prompt API: POST /compare with P and Q ; response names the item with higher CAv3.2 IC50 Ratio closed/inact.. Write down the label of the entry you select.
### Response P
(P: 5.3, Q: 1)

* * *

- Target Under Test: Human Cav 2.2 channels (Homo sapiens, UniProt Q00975)
- Assay Info: Fluorescent assay for CaV2.2 channels using potassium depolarization (VIPR/FLIPR)
- Type: cell-based
- Protocol Conditions: FLIPR data; closed state; read-out: CAv2.2 IC50 Closed
pIC50: −log10 of the molar value.
Quantity: pIC50

(A) CNC1(CC(=O)NCc2ccc(S(=O)(=O)c3cccc(C(F)(F)F)c3)cc2)CCCCC1
(B) CC(C)([C@H]1C[C@H](NC(=O)c2cc(C(F)(F)F)n[nH]2)C1)S(=O)(=O)c1cccc(OC(F)(F)F)c1
### Prompt API: POST /compare with A and B ; response names the item with higher pIC50. Write down the label of the entry you select.
### Response A
(A: 5.45, B: 5.24)

(I) O=C(NC[C@H]1C[C@H](S(=O)(=O)c2cccc(OC(F)(F)F)c2)C1)c1ccc(OCC(F)(F)F)nc1 [Compound 698]
(II) Cn1nc(C(F)(F)F)cc1C(=O)N[C@H]1C[C@H](CC(C)(C)S(=O)(=O)c2cccc(C(F)(F)F)c2)C1
### Prompt Please compare: I and II . Report which one has the smaller pIC50 value. Write down the label of the entry you select.
### Response I

(A) CC(C)([C@H]1C[C@H](CNc2ccc(F)c(Cl)c2)C1)S(=O)(=O)c1cccc(C(F)(F)F)c1
(B) CC(C)([C@H]1C[C@H](NS(=O)(=O)c2ccc(Cl)c(F)c2)C1)S(=O)(=O)c1cccc(C(F)(F)F)c1
### Prompt Please compare: A and B . Report which one has the smaller pIC50 value. Write down the label of the entry you select.
### Response B
(B: 5.14, A: 5.63)
